System under test: Prostaglandin E synthase (Homo sapiens)
Sequence (O14684 whole entry): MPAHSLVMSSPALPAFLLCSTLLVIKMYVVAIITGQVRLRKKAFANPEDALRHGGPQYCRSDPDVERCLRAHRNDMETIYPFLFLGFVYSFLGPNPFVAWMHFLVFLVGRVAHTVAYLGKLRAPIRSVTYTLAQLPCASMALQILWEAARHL
Assay: mPGES1 enzyme assay: mPGES1 was diluted with assay buffer and added into plate at 49 μL/well supplemented with 1 μL of compound (the final concentration of each compound at seven gradient concentrations was 10000 nM, 1000 nM, 100 nM, 10 nM, 1 nM, 0.1 nM and 0.01 nM). Each well was added with 3.8 μL of 20 μg/mL PGH precooled on ice after shaking for 30 seconds and incubated for 7 minutes on ice. Then, each well was added with 53.8 μL of 6 mg/mL SnCl2 to quench the reaction. The sample was diluted with dilute buffer at 1:400. 10 μl of diluted sample, 5 μL PGE2-d2 and 5 μL anti-PGE2 Cryptate were added to a black 384-well plate, and incubated at 4° C. overnight. HTRF was determined using Flexstation, and the IC50 of the compounds was obtained by data processing software.
Experimental readout: IC50 (nM)
Report only the number, with the unit nM understood.

Task: Value lookup for IC50; key = `CCn1c(-c2ccc(F)cc2)cc2cc(NC(=O)c3cc(CNC(=O)C(C)(C)C)ccc3Br)ccc21`
Output: 6.02
